The measurements presented in this section are drawn from PubChem BioAssay AID1963981.

Test system: 354836-022-R-J1-PDC multicell spheroid viability;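 note: spheroids exposed to agents for seven days before the viability read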
Experiment: Anticancer human tumor 354836-022-R-J1-PDC patient-derived head and neck squamous cell carcinoma cell line growth inhibition [PI3K]
Conditions: second compound 0.316 µM; first compound 0.1 µM; stronger effect = lower value

compound: CC1(C)CCC(Nc2ncc(C(F)(F)F)c(-c3c[nH]c4c(P(C)(C)=O)c(C#N)ccc34)n2)CN1 (configuration not stated) + CC(Nc1ncnc2nc[nH]c12)c1cc2cccc(Cl)c2c(=O)n1-c1ccccc1
measured.on: 354836-022-R-J1-PDC multicell spheroid viability
quantity.unit: %
viability, T/C: 13.9

compound: CC(C)NCC(C(=O)N1CCN(c2ncnc3c2C(C)CC3O)CC1)c1ccc(Cl)cc1 (configuration not stated) + CC(Nc1ncnc2nc[nH]c12)c1cc2cccc(Cl)c2c(=O)n1-c1ccccc1
measured.on: 354836-022-R-J1-PDC multicell spheroid viability
quantity.unit: %
viability, T/C: 77.7

compound: CC(C)n1nc(-c2ccc3oc(N)nc3c2)c2c(N)ncnc21 + CC(Nc1ccc2c(c1)OCCn1cc(N3C(=O)OCC3C(F)F)nc1-2)C(N)=O
measured.on: 354836-022-R-J1-PDC multicell spheroid viability
quantity.unit: %
viability, T/C: 6.64

compound: CCCS(=O)(=O)Nc1ccc(F)c(C(=O)c2c[nH]c3ncc(-c4ccc(Cl)cc4)cc23)c1F + CC(Nc1ncnc2nc[nH]c12)c1cc2cccc(Cl)c2c(=O)n1-c1ccccc1
measured.on: 354836-022-R-J1-PDC multicell spheroid viability
quantity.unit: %
viability, T/C: 106

compound: CNC(=O)c1ccc(N2C(=S)N(c3ccc(C#N)c(C(F)(F)F)c3)C(=O)C2(C)C)cc1F + COc1c(OCCCN2CCOCC2)ccc2c3n(c(=NC(=O)c4cnc(N)nc4)nc12)CCN3
measured.on: 354836-022-R-J1-PDC multicell spheroid viability
quantity.unit: %
viability, T/C: 18.1

compound: Cn1nccc1Nc1nccc(-c2ccn(C(CO)c3ccc(Cl)c(F)c3)c(=O)c2)n1 (configuration not stated) + CC(Nc1ccc2c(c1)OCCn1cc(N3C(=O)OCC3C(F)F)nc1-2)C(N)=O
measured.on: 354836-022-R-J1-PDC multicell spheroid viability
quantity.unit: %
viability, T/C: 73.3

compound: CC(=O)c1c(C)c2cnc(Nc3ccc(N4CCNCC4)cn3)nc2n(C2CCCC2)c1=O + CC(Nc1ccc2c(c1)OCCn1cc(N3C(=O)OCC3C(F)F)nc1-2)C(N)=O
measured.on: 354836-022-R-J1-PDC multicell spheroid viability
quantity.unit: %
viability, T/C: 72.4

compound: CNC(=O)c1ccc(N2C(=S)N(c3ccc(C#N)c(C(F)(F)F)c3)C(=O)C2(C)C)cc1F + Cc1nc(NC(=O)N2CCCC2C(N)=O)sc1-c1ccnc(C(C)(C)C(F)(F)F)c1
measured.on: 354836-022-R-J1-PDC multicell spheroid viability
quantity.unit: %
viability, T/C: 99.6

compound: CC1(C)CCC(CN2CCN(c3ccc(C(=O)NS(=O)(=O)c4ccc(NCC5CCOCC5)c([N+](=O)[O-])c4)c(Oc4cnc5[nH]ccc5c4)c3)CC2)=C(c2ccc(Cl)cc2)C1 + Cc1nc(NC(=O)N2CCCC2C(N)=O)sc1-c1ccnc(C(C)(C)C(F)(F)F)c1
measured.on: 354836-022-R-J1-PDC multicell spheroid viability
quantity.unit: %
viability, T/C: 86.4

compound: CC(=O)c1c(C)c2cnc(Nc3ccc(N4CCNCC4)cn3)nc2n(C2CCCC2)c1=O + CC(Nc1ncnc2nc[nH]c12)c1cc2cccc(Cl)c2c(=O)n1-c1ccccc1
measured.on: 354836-022-R-J1-PDC multicell spheroid viability
quantity.unit: %
viability, T/C: 113

compound: Cn1ncc(Cl)c1-c1cc(C(=O)NC(CN)Cc2cccc(F)c2)sc1Cl (configuration not stated) + COc1c(OCCCN2CCOCC2)ccc2c3n(c(=NC(=O)c4cnc(N)nc4)nc12)CCN3
measured.on: 354836-022-R-J1-PDC multicell spheroid viability
quantity.unit: %
viability, T/C: 10.3

compound: CCCS(=O)(=O)Nc1ccc(F)c(C(=O)c2c[nH]c3ncc(-c4ccc(Cl)cc4)cc23)c1F + COc1c(OCCCN2CCOCC2)ccc2c3n(c(=NC(=O)c4cnc(N)nc4)nc12)CCN3
measured.on: 354836-022-R-J1-PDC multicell spheroid viability
quantity.unit: %
viability, T/C: 13.2

compound: CC(C)NCC(C(=O)N1CCN(c2ncnc3c2C(C)CC3O)CC1)c1ccc(Cl)cc1 (configuration not stated) + Cc1nc(NC(=O)N2CCCC2C(N)=O)sc1-c1ccnc(C(C)(C)C(F)(F)F)c1
measured.on: 354836-022-R-J1-PDC multicell spheroid viability
quantity.unit: %
viability, T/C: 65

compound: CCCS(=O)(=O)Nc1ccc(F)c(C(=O)c2c[nH]c3ncc(-c4ccc(Cl)cc4)cc23)c1F + Cc1nc(NC(=O)N2CCCC2C(N)=O)sc1-c1ccnc(C(C)(C)C(F)(F)F)c1
measured.on: 354836-022-R-J1-PDC multicell spheroid viability
quantity.unit: %
viability, T/C: 79.6

compound: C[C@@H](NC(=O)c1ncnc(N)c1Cl)c1ncc(C(=O)Nc2cc(C(F)(F)F)c(Cl)cn2)s1 + Cc1nc(NC(=O)N2CCCC2C(N)=O)sc1-c1ccnc(C(C)(C)C(F)(F)F)c1
measured.on: 354836-022-R-J1-PDC multicell spheroid viability
quantity.unit: %
viability, T/C: 89.7

compound: C#Cc1c(F)ccc2cc(O)cc(-c3ncc4c(N5CC6CCC(C5)N6)nc(OCC56CCCN5CC(F)C6)nc4c3F)c12 (configuration not stated) + Cc1nc(NC(=O)N2CCCC2C(N)=O)sc1-c1ccnc(C(C)(C)C(F)(F)F)c1
measured.on: 354836-022-R-J1-PDC multicell spheroid viability
quantity.unit: %
viability, T/C: 83.9

compound: Cn1ncc(Cl)c1-c1cc(C(=O)NC(CN)Cc2cccc(F)c2)sc1Cl (configuration not stated) + CC(Nc1ccc2c(c1)OCCn1cc(N3C(=O)OCC3C(F)F)nc1-2)C(N)=O
measured.on: 354836-022-R-J1-PDC multicell spheroid viability
quantity.unit: %
viability, T/C: 48.8

compound: Cn1ncc(Cl)c1-c1cc(C(=O)NC(CN)Cc2cccc(F)c2)sc1Cl (configuration not stated) + Cc1nc(NC(=O)N2CCCC2C(N)=O)sc1-c1ccnc(C(C)(C)C(F)(F)F)c1
measured.on: 354836-022-R-J1-PDC multicell spheroid viability
quantity.unit: %
viability, T/C: 63.8

compound: CC1(C)CCC(Nc2ncc(C(F)(F)F)c(-c3c[nH]c4c(P(C)(C)=O)c(C#N)ccc34)n2)CN1 (configuration not stated) + COc1c(OCCCN2CCOCC2)ccc2c3n(c(=NC(=O)c4cnc(N)nc4)nc12)CCN3
measured.on: 354836-022-R-J1-PDC multicell spheroid viability
quantity.unit: %
viability, T/C: 3.49

compound: C=CC(=O)N1CCN(c2nc(=O)n(-c3c(C)ccnc3C(C)C)c3nc(-c4c(O)cccc4F)c(F)cc23)C(C)C1 (configuration not stated) + Cc1nc(NC(=O)N2CCCC2C(N)=O)sc1-c1ccnc(C(C)(C)C(F)(F)F)c1
measured.on: 354836-022-R-J1-PDC multicell spheroid viability
quantity.unit: %
viability, T/C: 99.2

compound: CCN1CCN(Cc2ccc(Nc3ncc(F)c(-c4cc(F)c5nc(C)n(C(C)C)c5c4)n3)nc2)CC1 + CC(Nc1ccc2c(c1)OCCn1cc(N3C(=O)OCC3C(F)F)nc1-2)C(N)=O
measured.on: 354836-022-R-J1-PDC multicell spheroid viability
quantity.unit: %
viability, T/C: 62.1

compound: CC(C)n1nc(-c2ccc3oc(N)nc3c2)c2c(N)ncnc21 + COc1c(OCCCN2CCOCC2)ccc2c3n(c(=NC(=O)c4cnc(N)nc4)nc12)CCN3
measured.on: 354836-022-R-J1-PDC multicell spheroid viability
quantity.unit: %
viability, T/C: 0.76
